- Target desc: Transient receptor potential cation channel subfamily V member 1 (Homo sapiens)
- Sequence (Q8NER1 whole entry): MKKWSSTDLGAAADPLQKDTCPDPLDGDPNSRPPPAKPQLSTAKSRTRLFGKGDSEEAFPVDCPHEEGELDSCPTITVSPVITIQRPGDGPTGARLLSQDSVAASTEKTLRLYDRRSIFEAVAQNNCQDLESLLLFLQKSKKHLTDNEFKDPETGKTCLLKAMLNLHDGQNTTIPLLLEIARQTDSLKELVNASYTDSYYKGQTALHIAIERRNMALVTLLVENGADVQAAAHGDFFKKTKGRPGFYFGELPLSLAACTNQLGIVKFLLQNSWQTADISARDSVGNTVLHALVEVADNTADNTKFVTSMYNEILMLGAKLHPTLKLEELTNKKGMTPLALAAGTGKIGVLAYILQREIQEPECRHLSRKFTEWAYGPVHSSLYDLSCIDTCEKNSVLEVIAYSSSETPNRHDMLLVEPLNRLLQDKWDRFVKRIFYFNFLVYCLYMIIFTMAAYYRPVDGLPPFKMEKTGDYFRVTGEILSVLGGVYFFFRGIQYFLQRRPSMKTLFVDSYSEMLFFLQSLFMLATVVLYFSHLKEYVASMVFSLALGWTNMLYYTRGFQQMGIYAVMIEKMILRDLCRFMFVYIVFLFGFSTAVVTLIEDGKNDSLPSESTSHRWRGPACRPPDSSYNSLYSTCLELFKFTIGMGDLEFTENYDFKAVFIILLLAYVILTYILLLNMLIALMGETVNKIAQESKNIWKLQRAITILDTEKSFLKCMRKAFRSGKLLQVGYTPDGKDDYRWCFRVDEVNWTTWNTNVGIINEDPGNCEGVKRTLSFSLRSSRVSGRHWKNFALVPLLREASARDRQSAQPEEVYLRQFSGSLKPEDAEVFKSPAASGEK
- Experiment: Antagonist activity at capsaicin-induced human TRPV1 expressed in CHOK1 cells by FLIPR assay
pKi: −log10 of the molar value.
Measured metric: pKi

> print(dat)
                                    compound  endpoint.result
 1  O=C(Cc1ccc2c(c1)OCO2)NCc1cc(C(F)(F)F)nn1-c1cccc(Cl)c1             7.55
 2  CC1CCN(c2nc(C(C)(C)C)ccc2CNC(=O)Cc2ccc3c(c2)CCC3)CC1             7.40
 3  CC1CCN(c2nc(C(F)(F)F)ccc2CNC(=O)C(C)c2ccc3c(c2)OCO3)CC1 (stereo not given)             7.36
 4  O=C(Cc1ccc2c(c1)CCC2)NCc1cc(C(F)(F)F)nn1-c1ccc(F)cc1             7.62
 5  CC1CCN(c2cc(C(F)(F)F)ccc2CNC(=O)C(C)c2ccc3c(c2)CCC3)CC1 (stereo not given)             7.02
 6  Cc1ccc(-n2nc(C(F)(F)F)cc2CNC(=O)C(C)c2ccc3c(c2)CCC3)cc1C (stereo not given)             7.95
 7  CC1CCN(c2nc(C(F)(F)F)ccc2CNC(=O)C(C)c2ccc3c(c2)CCC3)CC1 (stereo not given)             7.24
 8  CC(C)(C)c1cc(CNC(=O)Cc2ccc3c(c2)OCO3)n(-c2cccc(Cl)c2)n1             8.04
 9  CC(C(=O)NCc1cc(C(C)(C)C)nn1-c1ccc(OC(F)(F)F)cc1)c1ccc2c(c1)CCC2 (stereo not given)             7.18
10  CC(C)(C)c1cc(CNC(=O)Cc2ccc3c(c2)OCO3)n(-c2cc(Cl)cc(Cl)c2)n1             7.15
11  CC(C)(C)c1cc(CNC(=O)Cc2ccc3c(c2)OCO3)n(-c2ccc(F)c(F)c2)n1             7.59
12  CC(C)(C)c1cc(CNC(=O)Cc2ccc3c(c2)CCC3)n(-c2ccc(F)cc2)n1             7.30
13  CC1CCN(c2nc(C(F)(F)F)ccc2CNC(=O)Cc2ccc3c(c2)OCO3)CC1             7.80
14  CC(C(=O)NCc1cc(C(F)(F)F)nn1-c1cccc(C(F)(F)F)c1)c1ccc2c(c1)OCO2 (stereo not given)             8.24
15  CC1CCN(c2cc(C(F)(F)F)ccc2CNC(=O)C(C)c2ccc3c(c2)OCO3)CC1 (stereo not given)             7.76
16  CC(C)(C)c1cc(CNC(=O)Cc2ccc3c(c2)CCC3)n(-c2cccc(C(F)(F)F)c2)n1             8.15
17  CC1CCN(c2nc(C(C)(C)C)ccc2CNC(=O)Cc2ccc3c(c2)OCO3)CC1             7.30
18  CC1CCN(c2nc(C(F)(F)F)ccc2CNC(=O)Cc2ccc3c(c2)CCC3)CC1             7.88
19  O=C(Cc1ccc2c(c1)CCC2)NCc1cc(C(F)(F)F)nn1-c1cccc(Cl)c1             8.28
20  CC1CCN(c2cc(C(F)(F)F)ccc2CNC(=O)Cc2ccc3c(c2)CCC3)CC1             7.92
21  CC(C(=O)NCc1cc(C(F)(F)F)nn1-c1ccc(C(F)(F)F)cc1)c1ccc2c(c1)OCO2 (stereo not given)             7.37
22  CC(C(=O)NCc1cc(C(F)(F)F)nn1-c1ccc(C(F)(F)F)cc1)c1ccc2c(c1)CCC2 (stereo not given)             7.29
23  CC1CCN(c2cc(C(C)(C)C)ccc2CNC(=O)Cc2ccc3c(c2)OCO3)CC1             7.64
24  CC(C(=O)NCc1cc(C(F)(F)F)nn1-c1ccc(F)c(Cl)c1)c1ccc2c(c1)OCO2 (stereo not given)             8.12
25  CC(C)(C)c1cc(CNC(=O)Cc2ccc3c(c2)CCC3)n(-c2ccc(C(F)(F)F)cc2)n1             7.10
26  CC(C)(C)c1cc(CNC(=O)Cc2ccc3c(c2)OCO3)n(-c2cccc(F)c2)n1             7.41
27  CC(C)(C)c1cc(CNC(=O)Cc2ccc3c(c2)OCO3)n(-c2cccc(C(F)(F)F)c2)n1             7.91
28  CC(C(=O)NCc1cc(C(C)(C)C)nn1-c1ccc(C(F)(F)F)cc1)c1ccc2c(c1)CCC2 (stereo not given)             7.20
29  CC(C(=O)NCc1cc(C(F)(F)F)nn1-c1cccc(F)c1)c1ccc2c(c1)OCO2 (stereo not given)             7.76
30  CC1CCN(c2nc(C(C)(C)C)ccc2CNC(=O)C(C)c2ccc3c(c2)OCO3)CC1 (stereo not given)             7.50
